- System: Trichosporon beigelii
- testProtocol: Antimicrobial activity against Trichosporon beigelii 1188 after 24 hrs by broth microdilution test
- Format: functional
- conditionParameters: Trichosporon beigelii, 1188, 24 h
Each entry below carries its recorded MIC80.

Inquiry: May I ask what MIC80 has been recorded for CCOc1ccccc1/C=C/c1ccc2cccc(O)c2n1 ?
Reply text: > 500 µM

Inquiry: What do you get for OC(Cn1cncn1)(Cn1cncn1)c1ccc(F)cc1F [FLUCONAZOLE] ?
Reply text: 0.24 µM

Inquiry: What do you get for Oc1ccccc1/C=C/c1ccc2ccccc2n1 ?
Reply text: > 125 µM

Inquiry: What do you get for CCOc1ccc(/C=C/c2ccc3ccccc3n2)cc1 ?
Reply text: > 500 µM

Inquiry: What do you get for CCOc1ccc(/C=C/c2ccc3c(Cl)cc(Cl)c(O)c3n2)cc1 ?
Reply text: 125 µM

Inquiry: What do you get for Oc1cccc(/C=C/c2ccc3cccc(O)c3n2)c1 ?
Reply text: > 125 µM

Inquiry: What do you get for Oc1c(Cl)cc(Cl)c2ccc(/C=C/c3ccc(/C=C/c4ccc5c(Cl)cc(Cl)c(O)c5n4)cc3)nc12 ?
Reply text: 3.9 µM

Measured values drawn from ChEMBL document CHEMBL2203120 for this set.
